# systemTested: NE reuptake (NE transporter) (Rattus norvegicus, UniProt Q63380)
# Construct: from tissue; host or cells: Wistar rat brain (procerebrum; crude synaptosomal supernatant)
# Sequence (Q63380 1-617): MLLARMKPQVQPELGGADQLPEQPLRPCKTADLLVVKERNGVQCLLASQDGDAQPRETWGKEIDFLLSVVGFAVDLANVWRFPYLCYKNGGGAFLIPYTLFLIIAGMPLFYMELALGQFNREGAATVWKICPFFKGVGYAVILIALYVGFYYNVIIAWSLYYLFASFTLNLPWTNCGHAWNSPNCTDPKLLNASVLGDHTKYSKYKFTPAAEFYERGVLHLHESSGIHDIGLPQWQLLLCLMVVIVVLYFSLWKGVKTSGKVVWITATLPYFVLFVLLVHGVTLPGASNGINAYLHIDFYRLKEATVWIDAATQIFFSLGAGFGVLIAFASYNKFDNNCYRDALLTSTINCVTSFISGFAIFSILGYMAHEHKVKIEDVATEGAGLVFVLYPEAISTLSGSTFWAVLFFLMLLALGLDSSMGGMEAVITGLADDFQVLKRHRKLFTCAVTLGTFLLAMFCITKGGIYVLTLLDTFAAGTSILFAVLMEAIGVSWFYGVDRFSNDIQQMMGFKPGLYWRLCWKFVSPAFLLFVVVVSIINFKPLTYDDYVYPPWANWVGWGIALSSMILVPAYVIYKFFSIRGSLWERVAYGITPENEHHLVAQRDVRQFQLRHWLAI
# experimentalProtocol: Inhibition of NE reuptake in rat brain synaptosome (3H-NE uptake)
# Format: biochemical
# assayConditions: 10 μM, read-out: NE reuptake percent inhibition
Give measured inhibition at 10 µM for each item. Keep answers brief.
Give bare numbers, in %.

# annotated cases, reported inhibition at 10 µM shown
molecularString: Fc1ccc(/C(=N\Cc2ccccc2)N2CCNCC2)cc1
systemTested: NE reuptake (NE transporter) (Rattus norvegicus, UniProt Q63380)
unitDescriptor: %
inhibition at 10 µM: 39
--
molecularString: O=[N+]([O-])c1ccc(/C(=N\Cc2ccccc2)N2CCNCC2)cc1
systemTested: NE reuptake (NE transporter) (Rattus norvegicus, UniProt Q63380)
unitDescriptor: %
inhibition at 10 µM: 66
--
molecularString: N#Cc1cccc(/C(=N\Cc2ccc(Cl)cc2)N2CCNCC2)c1
systemTested: NE reuptake (NE transporter) (Rattus norvegicus, UniProt Q63380)
unitDescriptor: %
inhibition at 10 µM: 78

Please look at the items below and tell me inhibition at 10 µM for each one, in order.
1. Clc1ccc(/C(=N\Cc2cccc3ccccc23)N2CCNCC2)cc1
2. Clc1cccc(/C(=N\Cc2cccc3ccccc23)N2CCNCC2)c1
3. Clc1ccccc1/C(=N\Cc1ccccc1)N1CCNCC1
4. O=[N+]([O-])c1cccc2c(/C(=N\Cc3ccccc3)N3CCNCC3)cccc12
5. O=[N+]([O-])c1ccc(/C(=N\Cc2ccccc2)N2CCNCC2)c(Cl)c1
6. Fc1ccccc1/C(=N\Cc1ccccc1)N1CCNCC1
7. O=[N+]([O-])c1ccc(/C(=N\Cc2ccc(Cl)cc2)N2CCNCC2)cc1
8. N#Cc1cccc(/C(=N\Cc2ccccc2)N2CCNCC2)c1

Solution:
59
75
65
66
49
35
81
51

Exercise: Could you share what inhibition at 10 µM was measured for "Fc1ccc(/C(=N\Cc2ccc(Cl)cc2)N2CCNCC2)cc1" , tested on NE reuptake (NE transporter) (Rattus norvegicus, UniProt Q63380)?
Solution: 26
